B1: POU domain, class 3, transcription factor 2, residues 262 to 338; numbered along this chain, P20265 (parent)
chain: EDTPTSDDLEQFAKQFKQRRIKLGFTQADVGLALGTLYGNVFSQTTICRFEALQLSFKNMCKLKPLLNKWLEEADSS

Variants of: B1
Experiment: abundance fitness (aPCA) (normalised: wild type 0, dead -1); higher = more abundant; growth selection in yeast, the domain comes from the species named
Details: Homo sapiens
Reported metric: abundance fitness
Respond with the number and no other words.

Challenge: Requested field: abundance fitness. Item: P65D
Response given: -0.118

Challenge: Requested field: abundance fitness. Item: L37E
Response given: -0.012

Challenge: Requested field: abundance fitness. Item: L34D
Response given: -0.76

Challenge: Requested field: abundance fitness. Item: T45L
Response given: -0.127

Challenge: Requested field: abundance fitness. Item: I47N
Response given: -0.798

Challenge: Requested field: abundance fitness. Item: K14M
Response given: -0.082

Challenge: Requested field: abundance fitness. Item: N68M
Response given: -0.284

Challenge: Requested field: abundance fitness. Item: A52M
Response given: -0.091

Challenge: Requested field: abundance fitness. Item: N40P
Response given: -0.005

Challenge: Requested field: abundance fitness. Item: E73I
Response given: -0.009

Challenge: Requested field: abundance fitness. Item: A74Y
Response given: -0.151

Challenge: Requested field: abundance fitness. Item: K22L
Response given: -0.04

Challenge: Requested field: abundance fitness. Item: G35P
Response given: -0.612

Challenge: Requested field: abundance fitness. Item: E72Y
Response given: -0.217

Challenge: Requested field: abundance fitness. Item: A52N
Response given: 0.008

Challenge: Requested field: abundance fitness. Item: V30L
Response given: -0.306

Challenge: Requested field: abundance fitness. Item: R20K
Response given: -1.25

Challenge: Requested field: abundance fitness. Item: N68R
Response given: -0.004

Challenge: Requested field: abundance fitness. Item: K17I
Response given: -0.349

Challenge: Requested field: abundance fitness. Item: K58Q
Response given: 0.024

Challenge: Requested field: abundance fitness. Item: K22H
Response given: -0.168

Challenge: Requested field: abundance fitness. Item: S43C
Response given: -0.042

Challenge: Requested field: abundance fitness. Item: K17R
Response given: -0.05

Challenge: Requested field: abundance fitness. Item: L67D
Response given: -0.759

Challenge: Requested field: abundance fitness. Item: T45N
Response given: -0.08

Challenge: Requested field: abundance fitness. Item: C61Q
Response given: -0.112

Challenge: Requested field: abundance fitness. Item: L67T
Response given: -0.407

Challenge: Requested field: abundance fitness. Item: T45P
Response given: -0.261

Challenge: Requested field: abundance fitness. Item: T26N
Response given: -0.392

Challenge: Requested field: abundance fitness. Item: S77L
Response given: -0.028

Challenge: Requested field: abundance fitness. Item: F42S
Response given: -0.268

Challenge: Requested field: abundance fitness. Item: Q18D
Response given: -0.068

Challenge: Requested field: abundance fitness. Item: L55A
Response given: -0.567

Challenge: Requested field: abundance fitness. Item: V41P
Response given: -0.042

Challenge: Requested field: abundance fitness. Item: Q15R
Response given: -0.035

Challenge: Requested field: abundance fitness. Item: G31V
Response given: -0.113

Challenge: Requested field: abundance fitness. Item: V41W
Response given: 0.004

Challenge: Requested field: abundance fitness. Item: F25T
Response given: -0.632

Challenge: Requested field: abundance fitness. Item: R49Y
Response given: -0.499

Challenge: Requested field: abundance fitness. Item: F12R
Response given: -0.401

Challenge: Requested field: abundance fitness. Item: L71V
Response given: -0.089

Challenge: Requested field: abundance fitness. Item: M60I
Response given: -0.907

Challenge: Requested field: abundance fitness. Item: Y38S
Response given: -0.012

Challenge: Requested field: abundance fitness. Item: M60L
Response given: -0.282

Challenge: Requested field: abundance fitness. Item: A74R
Response given: -0.036

Challenge: Requested field: abundance fitness. Item: V30F
Response given: -0.552

Taken from the Human Domainome abundance scans (Beltran et al. 2025).
